PBM E-score values, listed per item
Assayed Target: Ybr033w (UniProt P38073)
Sequence: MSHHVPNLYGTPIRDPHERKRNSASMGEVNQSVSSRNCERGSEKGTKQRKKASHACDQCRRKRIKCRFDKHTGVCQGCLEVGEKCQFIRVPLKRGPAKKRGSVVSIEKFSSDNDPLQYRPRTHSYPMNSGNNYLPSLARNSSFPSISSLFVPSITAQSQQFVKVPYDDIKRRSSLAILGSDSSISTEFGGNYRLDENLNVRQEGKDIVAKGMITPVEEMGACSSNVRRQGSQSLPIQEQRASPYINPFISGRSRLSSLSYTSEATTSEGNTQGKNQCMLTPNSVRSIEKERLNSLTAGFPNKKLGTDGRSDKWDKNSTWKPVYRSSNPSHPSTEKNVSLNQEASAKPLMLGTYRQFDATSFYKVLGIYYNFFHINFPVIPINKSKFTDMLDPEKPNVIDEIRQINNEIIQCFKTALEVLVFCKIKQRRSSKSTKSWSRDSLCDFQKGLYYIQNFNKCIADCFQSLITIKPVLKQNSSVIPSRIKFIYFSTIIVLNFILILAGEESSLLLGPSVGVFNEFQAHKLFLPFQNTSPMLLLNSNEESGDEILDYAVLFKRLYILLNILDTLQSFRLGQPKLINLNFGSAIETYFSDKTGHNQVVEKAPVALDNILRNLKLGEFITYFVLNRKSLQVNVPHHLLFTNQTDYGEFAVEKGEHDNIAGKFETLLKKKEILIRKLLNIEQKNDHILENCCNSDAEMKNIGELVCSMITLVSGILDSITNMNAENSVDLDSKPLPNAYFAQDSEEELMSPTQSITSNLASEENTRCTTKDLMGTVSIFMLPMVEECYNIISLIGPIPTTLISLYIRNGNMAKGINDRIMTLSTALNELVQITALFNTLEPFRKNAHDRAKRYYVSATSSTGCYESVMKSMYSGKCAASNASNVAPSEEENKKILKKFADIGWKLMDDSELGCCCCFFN
Experiment: PBM E-score (8-mer binding enrichment) (E-score (-0.5 to 0.5)); higher = stronger / more preferred TF binding
Condition Details: protein concentration: 200 nM; construct: GST-full length
Over roughly 33,000 sequences, “E-score (-0.5 to 0.5)” has its median near -0.012; the highest 2% begin near 0.29. Only a selection was taken, and the highest values are over-represented in it overall.
// return a plain number; no unit text

A selection of reference data follows.
Record Sequence: GGACAGAC
PBM E-score: -0.174
//
Record Sequence: CCGGAAAG
PBM E-score: -0.0245

The sequence listed as `AAAGTTCC` shows PBM E-score equal to 0.132

Sure, the documented PBM E-score for `ATTAATCA` is 0.26

Recorded result, `GTTCATTA` , PBM E-score: 0.221

The sequence listed as `GGAATTAA` shows PBM E-score equal to 0.349

Reported PBM E-score for `ACGGAAAG` was 0.0247

The sequence listed as `TAAATTTA` shows PBM E-score equal to 0.289

Record `ATTGATCA` , field PBM E-score: 0.051

PBM E-score reported for this sequence `CAAGGAAA` : 0.162

Lab note: measured PBM E-score of `GGAATTAC` was 0.291

# sequence `CTTAATAC` ; its PBM E-score = 0.136

According to the records, this sequence `TTCGCAAA` displays PBM E-score of 0.225

Entry `ACGGAAAA` , PBM E-score reported as 0.422

PBM E-score reported for this sequence `CGAATTCA` : -0.00151

PBM E-score reading for `CTTGATCC` : 0.0221

Entry `CCTTAGCG` ; PBM E-score = -0.178

PBM E-score recorded for this sequence, `AAAGGAAC` , is 0.163

sequence `TCAAGAGA` , PBM E-score observed: 0.0989

Input `CAATTGCC` . Output PBM E-score: 0.0461

Form field PBM E-score, entry `ATATTATC` : 0.265

Entry `CGCTGCAG` , PBM E-score reported as -0.12

Item: `ATGAAGAA` | PBM E-score: 0.126
